Values of IC50 for Prothrombin (Homo sapiens), collected from a number of published sources:
Please state the figure in µM; there is no need to write the unit.

MOLECULE	VALUE UNITS	IC50
CCOC(=O)C(Cc1ccccc1)NC(=O)N[C@@H](Cc1ccccc1)C(=O)N[C@H](C(=O)N[C@@H](CCCN=C(N)N)C(=O)c1nccs1)C(C)C (some centres not stated)	µM	2.1

// IC50 value for N=C(N)c1ccc(CNC(=O)Cc2c(F)ccc(NS(=O)(=O)Cc3ccccc3)c2F)cc1 : 26.9

CC1(C)CCC[C@H]2[C@H]1CC[C@@]1(C)[C@@H]2CC/C(=C\OS(=O)(=O)O)[C@@H]1CCc1ccoc1 has a reported IC50 of 42.7

For N=C(N)c1ccc(CNC(=O)Cc2c(-c3ccccc3)ccc(NCCc3ccccc3)c2O)cc1 the molecule record lists IC50 as 6.8
